B1: Intersectin-2, residues 1129 to 1183; numbered along this chain, Q9NZM3 (parent)
chain: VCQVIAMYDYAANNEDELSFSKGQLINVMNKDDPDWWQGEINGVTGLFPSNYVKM

Variants of: B1
assay overview: abundance fitness (aPCA) (normalised: wild type 0, dead -1); higher = more abundant; growth selection in yeast, the domain comes from the species named
cond: Homo sapiens
observed property: abundance fitness
// return just the number, without any unit appended

Noted for VCNVIAMYDYAANNEDELSFSKGQLINVMNKDDPDWWQGEINGVTGLFPSNYVKM [Q3N] : its abundance fitness reads -0.169

Recorded result, VCQVIAMYDYAANNEDELSFSKGQLINVMNKDDPDWWQGEINGVTGLFLSNYVKM [P49L] , abundance fitness: -0.143

Per the record, VCQVIAMYDYAANNEDELSFSKGQLINVMNKDDPDWWQGEINQVTGLFPSNYVKM [G43Q] has abundance fitness of -0.202

Documented abundance fitness of VCQVIAMYDYAANNEDELSFSKGQLINVMNKDDADWWQGEINGVTGLFPSNYVKM [P34A] : 0.005

Just so you know, measured abundance fitness for VCQVIAMYDYAANNEDELSFSKGQLINVMNKFDPDWWQGEINGVTGLFPSNYVKM [D32F] came out at -0.205

abundance fitness recorded for this variant, VCQVIAMYDYAANNEDELSFSKGQLINIMNKDDPDWWQGEINGVTGLFPSNYVKM [V28I] , is 0.006

Sure, the documented abundance fitness for VCQVIAMYDYAANNEDELSFSKGQLINVMNKDDPDWWQGEINGVTGYFPSNYVKM [L47Y] is -0.04

Per the record, VCQVIAMYDYAANNEDELSFSPGQLINVMNKDDPDWWQGEINGVTGLFPSNYVKM [K22P] has abundance fitness of -0.154

variant VCQVIAMYDYAANTEDELSFSKGQLINVMNKDDPDWWQGEINGVTGLFPSNYVKM [N14T] , abundance fitness observed: -0.001

Lab note: VCQVIAMYDYAANNEDELSFSKGQLINVMNKDDPDWWQGELNGVTGLFPSNYVKM [I41L] gave abundance fitness of -0.012

Lab note: VCQYIAMYDYAANNEDELSFSKGQLINVMNKDDPDWWQGEINGVTGLFPSNYVKM [V4Y] gave abundance fitness of 0.032

Per the records, this variant ( VCQVIAMYDYAANNEDELSFSKGQLINVMNADDPDWWQGEINGVTGLFPSNYVKM [K31A] ) has abundance fitness equal to 0.173

// abundance fitness value for VCQVIAMYDYAANNEDELSFSKGQLINVMNKDDPDWNQGEINGVTGLFPSNYVKM [W37N] : -0.771

VCQVIFMYDYAANNEDELSFSKGQLINVMNKDDPDWWQGEINGVTGLFPSNYVKM [A6F] has a reported abundance fitness of -1.03

The recorded abundance fitness for entry VCQVIAMYDYAANNEDELAFSKGQLINVMNKDDPDWWQGEINGVTGLFPSNYVKM [S19A] equals -0.045

abundance fitness recorded for this variant, VCQVIAMYDYAANNEDELSFSKGQLINVMNKDDPQWWQGEINGVTGLFPSNYVKM [D35Q] , is -0.099

The variant VCQVIAMYDYAANNEDELSFSKGQLINVMNKDDPDWWQGEINGVTGLIPSNYVKM [F48I] showed abundance fitness equal to -0.085

Recorded abundance fitness (variant VCQVIAMYDYAANNEDGLSFSKGQLINVMNKDDPDWWQGEINGVTGLFPSNYVKM [E17G] ): -0.039

Data point: VCQVIAMYDYAANNEDELSFSKGQLINVMNKDDPDWWQGEINGRTGLFPSNYVKM [V44R] ; abundance fitness = -0.055

# variant VCQVIAMYDYAANNEDELSFSKGQLINVMNKDDPDWWQGEINGVTGLMPSNYVKM [F48M] ; its abundance fitness = -0.092

According to the records, this variant VCQVIAMYDYAANNEDELSFSKGQLINGMNKDDPDWWQGEINGVTGLFPSNYVKM [V28G] displays abundance fitness of -0.937

The value of abundance fitness measured for the variant VCQVIAMYDYAANNEDELSFSKGQLINVMNKLDPDWWQGEINGVTGLFPSNYVKM [D32L] turned out to be -0.11
